Method summary: qHTS drug screen for cell cycle checkpoint inhibitors in PARPi-resistant BRCA-mutant ovarian cancer cell lines. (AID 1963452)
Settings: PEO1/OlaR viability, CellTiter-Glo luminescence, 96 h; measured here: PEO1 parental Z-AUC; stronger effect = lower value
Readout kind: Z-AUC

Compound: CN(C)N(C)C(=O)[C@@]1(Cc2ccccc2)CCCN(C(=O)[C@@H](Cc2c[nH]c3ccccc23)NC(=O)C(C)(C)N)C1
Quantitative readout: -0.129
--
Compound: CS(=O)(=O)Nc1cc2occ(NC=O)c(=O)c2cc1Oc1ccccc1
Quantitative readout: 0.631
--
Compound: Cc1cc(N2CCOCC2)ccc1Nc1nc(NC2CCCCC2)c2[nH]cnc2n1
Quantitative readout: -0.748
--
Compound: Cc1nc(-c2cn3c(n2)-c2ccc(-c4cnn(C(C)(C)C(N)=O)c4)cc2OCC3)n(C(C)C)n1
Quantitative readout: -0.764
--
Compound: c1cc(-c2cnn3cc(-c4ccc(N5CCNCC5)cc4)cnc23)c2cccnc2c1
Quantitative readout: -1.26
--
Compound: Cn1cc(-c2ccc3c(c2)CCN3C(=O)Cc2cccc(C(F)(F)F)c2)c2c(N)ncnc21
Quantitative readout: -0.267
--
Compound: COc1ccc(CNc2nc(N(CCO)CCO)nc3c2ncn3C(C)C)cc1
Quantitative readout: -0.866
--
Compound: Nc1nccc(-c2c(-c3ccc(F)cc3)ncn2C2CCCCC2)n1
Quantitative readout: 1.09
--
Compound: CCNC(=O)C#Cc1ccc2c(C(=Nc3ccc(CN(C)C)cc3)c3ccccc3)c(O)[nH]c2c1
Quantitative readout: -2.66
--
Compound: NCC1CCN(c2nccc(-c3ccc4ccccc4c3)n2)CC1
Quantitative readout: 0.563
--
Compound: Cn1cc(-c2ccc(S(=O)(=O)n3ccc(/C=C/C(=O)Nc4ccccc4N)c3)cc2)cn1
Quantitative readout: 1.17
--
Compound: O=C(c1c(F)ccc(NS(=O)(=O)N2CC[C@@H](F)C2)c1F)c1c[nH]c2ncc(-c3cnc(C4CC4)nc3)cc12
Quantitative readout: 0.401
--
Compound: Cc1[nH]c2ccc(F)cc2c1-c1nc2c3cccnc3c3ncccc3c2[nH]1
Quantitative readout: -0.715
--
Compound: Cc1[nH]c(/C=C2\C(=O)Nc3ccc(F)cc32)c(C)c1C(=O)NCCN1CCCC1
Quantitative readout: 0.734
--
Compound: O=C(NCCCNC(=O)c1ccc[nH]c1=O)c1cc(-c2ccccc2)on1
Quantitative readout: 0.0234
--
Compound: FC(F)(F)c1ccc(CNc2ccc(Cc3c[nH]c4ncc(Cl)cc34)cn2)cn1
Quantitative readout: 1.06
--
Compound: CCCCOC(=O)NS(=O)(=O)c1sc(CC(C)C)cc1-c1ccc(Cn2ccnc2)cc1
Quantitative readout: 0.365
--
Compound: CC[C@@H](C)Nc1cc(C(=O)NC2CC3CC[C@@H](C2)N3c2ccc(C(=O)C3CC3)cn2)c(C)cc1C(N)=O (some centres not stated)
Quantitative readout: -1.88
--
Compound: FC(F)(F)c1ccc(/C=C/c2nc(COc3ccc(CCCCn4ccnn4)cc3)co2)cc1
Quantitative readout: -3.45
--
Compound: COc1cccc(-c2cc(F)ccc2C2Cc3nc(N)nc(C)c3C(=O)N2)n1 (configuration not stated)
Quantitative readout: -1.35
--
Compound: CCOC(=O)[C@@]1(CCCCCCOc2ccc(Cl)cc2)CO1
Quantitative readout: 1.19
--
Compound: NC(=O)c1ccccc1Nc1ccnc(Nc2cccc(O)c2)n1
Quantitative readout: -1.44
--
Compound: CC#C[C@@H](CC(=O)O)c1ccc(OCc2cccc(-c3ccc(C(F)(F)F)cc3)c2)cc1
Quantitative readout: 0.579
--
Compound: CCCc1cc(C)[nH]c(=O)c1CNC(=O)c1cc(-c2ccnc(N3CCN(C)CC3)c2)cc2c1cnn2C(C)C
Quantitative readout: -1.11
--
Compound: C1=C/COCc2cc(ccc2OCCN2CCCC2)Nc2nccc(n2)-c2cccc(c2)COC/1
Quantitative readout: -1.19
--
Compound: N#Cc1ccnc(Nc2cc(C3CCN(C4COC4)CC3)cc(N3CCC(F)(F)C3)n2)c1
Quantitative readout: -0.398
--
Compound: COc1ccc(Cl)c(Nc2ncnc3cc(OCC4CCN(C)CC4)c(OC)cc23)c1
Quantitative readout: -0.765
--
Compound: COc1cc(N2CCC(N3CCN(C)CC3)CC2)ccc1Nc1ncc(Cl)c(Nc2ccccc2P(C)(C)=O)n1
Quantitative readout: -1.53
--
Compound: Cc1c(F)ccc(C(=O)Nc2cc([N+](=O)[O-])ccc2N2CCN(C)CC2)c1Cl
Quantitative readout: 0.409
--
Compound: O=C(Nc1cccnc1)c1cc(-c2ccnc(F)c2)ccc1OCc1ccccc1
Quantitative readout: -0.74
--
Compound: COC(=O)Nc1cc(Nc2cc(NC3CC3)c3ncc(C#N)n3n2)c(Cl)c(N2CCN(C)CC2)c1
Quantitative readout: -0.992
--
Compound: Cc1sc2c(c1C)C(c1ccc(Cl)cc1)=N[C@@H](CC(=O)Nc1ccc(OCCOCCOCCOCCNc3cccc4c3C(=O)N(C3CCC(=O)NC3=O)C4=O)cc1)c1nnc(C)n1-2 (some centres not stated)
Quantitative readout: -2.13
--
Compound: Cn1cc(-c2ccc(F)c(C(F)(F)F)c2)nc1C1CCN(c2ncnc3[nH]ncc23)CC1
Quantitative readout: -0.264
--
Compound: NC(=O)c1cnc(N[C@@H]2CCCC[C@@H]2N)nc1Nc1cccc(-n2nccn2)c1
Quantitative readout: -0.0999
--
Compound: O=C(Nc1ccnc(NC(=O)C2CC2)c1)c1c(Cl)cccc1Cl
Quantitative readout: -0.966
--
Compound: O=C(Nc1ccc2[nH]nc(-c3ccncc3)c2c1)[C@@H]1CCN(CC(=O)N2CCN(c3ccc(-c4ncccn4)cc3)CC2)C1
Quantitative readout: -1.04
--
Compound: Cc1[nH]c2ccccc2c1CCNCc1ccc(/C=C/C(=O)NO)cc1
Quantitative readout: -1.48

---

# activity, negative = cell killing listing for each entry below
Method summary: Drug repurposing screens with cells derived from glioblastoma tumor samples (AID 1345199); note: % is set by controls: 0 for no effect and ±100 for the full control effect
Settings: GBM patient neurospheres viability, ATP luminescence, 48 h; at 45.9 µM (top of the series); tumour line D
Results filed as inconclusive are left out.

Compound: O=c1[nH]cnc2[nH]cc(CN3CCCCC3)c12
Unit info: %
activity, negative = cell killing: -0.491

Compound: C=CS(=O)(=O)O
Unit info: %
activity, negative = cell killing: -4.12

Compound: CN1CCN(C2=Nc3ccccc3Cc3ccccc32)CC1
Unit info: %
activity, negative = cell killing: -12.4

Compound: CO[C@H]1[C@@H](O)[C@H](N)[C@@H](O[C@H]2O[C@H]([C@H](C)N)CC[C@H]2N)[C@H](O)[C@@H]1N(C)C(=O)CN
Unit info: %
activity, negative = cell killing: -4.2

Compound: O=P(O)(O)C(O)(Cc1cnc2ccccn12)P(=O)(O)O
Unit info: %
activity, negative = cell killing: 2.92

Compound: O=C(O)CC(O)(CC(=O)O)C(=O)O
Unit info: %
activity, negative = cell killing: -16.4

Compound: C/C=C(/CC[C@@H](C)[C@H]1CC[C@H]2C3=CC[C@H]4[C@H](C)[C@@H](O)CC[C@]4(C)[C@H]3CC[C@]12C)C(C)C
Unit info: %
activity, negative = cell killing: -7.38

Compound: CN[C@@H]1CCc2[nH]c3ccc(C(N)=O)cc3c2C1
Unit info: %
activity, negative = cell killing: -11.6

Compound: CCCC1([C@H](O)C/C=C/[C@H]2[C@H](O)CC(=O)[C@@H]2CCCCCCC(=O)OC)CCC1
Unit info: %
activity, negative = cell killing: -12.7

Compound: CCCC(=O)N1CCCN(c2nc(N)c3cc(OC)c(OC)cc3n2)CC1
Unit info: %
activity, negative = cell killing: -2.77

Compound: CCCN(CC)C(CC)C(=O)Nc1c(C)cccc1C (stereo not given)
Unit info: %
activity, negative = cell killing: -11.8

Compound: CN(C(=O)CO)c1c(I)c(C(=O)NCC(O)CO)c(I)c(C(=O)NCC(O)CO)c1I (stereo not given)
Unit info: %
activity, negative = cell killing: -10.4

Compound: CCCCCCCC/C=C\CCCCCCCC(=O)OC[C@@H](O)[C@H]1OC[C@H](O)[C@H]1O
Unit info: %
activity, negative = cell killing: 1.42

Compound: CC(=O)OCC(=O)[C@@]1(O)[C@H](C)C[C@H]2[C@@H]3C[C@H](F)C4=CC(=O)C=C[C@]4(C)[C@H]3[C@@H](O)C[C@@]21C
Unit info: %
activity, negative = cell killing: 2.28

Compound: CCCCCCCCCCCCCCCC(=O)OCCC1CCN(CCCN2c3ccccc3Sc3ccc(S(=O)(=O)N(C)C)cc32)CC1
Unit info: %
activity, negative = cell killing: -12.7

Compound: CC1(C)S[C@@H]2[C@H](NC(=O)C(C(=O)Oc3ccc4c(c3)CCC4)c3ccccc3)C(=O)N2[C@H]1C(=O)O (stereo not given in full)
Unit info: %
activity, negative = cell killing: -5.29

Compound: NCCC[C@H](N)C(=O)O
Unit info: %
activity, negative = cell killing: -10.6

Compound: O=C(O)[C@@H](O)[C@H](O)[C@H](O)[C@@H](O)C(=O)O (tested in a mixture with another compound)
Unit info: %
activity, negative = cell killing: -10.8

Compound: COc1ccc(C2NC(=S)N3C(c4ccc(OC)c(OC)c4)NC(=S)N23)cc1OC (stereo not given)
Unit info: %
activity, negative = cell killing: -8.84

Compound: COC1=C(C(=O)O)N2C(=O)[C@@H](NC(=O)[C@H](N)C3=CCC=CC3)[C@H]2SC1
Unit info: %
activity, negative = cell killing: -11

Compound: O=C1O[C@H]2[C@H](O)[C@@H]1OC(O)[C@H]2O (stereo not given in full)
Unit info: %
activity, negative = cell killing: -9.05

Compound: CCCCOC(=O)C(=O)Nc1cccc(-c2nn[nH]n2)c1
Unit info: %
activity, negative = cell killing: 2.48

Compound: C[C@H]1C[C@@H]2[C@H]([C@@H](O)C[C@@]3(C)[C@H]2CC[C@]3(O)C(=O)COC(=O)CCC(=O)O)[C@@]2(C)C=CC(=O)C=C12
Unit info: %
activity, negative = cell killing: -23.4

Compound: O=C(Nc1ccc(/C=C/c2ccc(NC(=O)c3cc(S(=O)(=O)O)c4cccnc4c3O)cc2S(=O)(=O)O)c(S(=O)(=O)O)c1)c1cc(S(=O)(=O)O)c2cccnc2c1O
Unit info: %
activity, negative = cell killing: 6.57

Compound: CC(=O)O[C@H]1C[C@@H]2CC[C@@H]3[C@H](CC[C@@]4(C)[C@H]3C[C@H](N3CC[N+](C)(C)CC3)[C@@H]4OC(C)=O)[C@@]2(C)C[C@@H]1N1CC[N+](C)(C)CC1
Unit info: %
activity, negative = cell killing: 1.51

Compound: CCC(=O)O
Unit info: %
activity, negative = cell killing: -5.65

Compound: CC(CN(C)C)CN1c2ccccc2S(=O)(=O)c2ccccc21 (stereo not given)
Unit info: %
activity, negative = cell killing: -21.7

Compound: CCOC(=O)Cc1cccc(-c2cc(CCCCCCc3ccc(O[C@H]4O[C@H](COC(C)=O)[C@@H](OC(C)=O)[C@H](OC(C)=O)[C@@H]4OC(C)=O)c(-c4cccc(CC(=O)OCC)c4)c3)ccc2O[C@H]2O[C@H](COC(C)=O)[C@@H](OC(C)=O)[C@H](OC(C)=O)[C@@H]2OC(C)=O)c1
Unit info: %
activity, negative = cell killing: -4.61

Compound: CCCC(=O)O[C@]1(C(=O)COC(=O)CC)[C@@H](C)C[C@H]2[C@@H]3CCC4=CC(=O)C=C[C@]4(C)[C@@]3(F)[C@@H](O)C[C@@]21C
Unit info: %
activity, negative = cell killing: -14.2

Compound: NCCC(=O)[N-][C@@H](Cc1cnc[nH]1)C(=O)O.[Zn]
Unit info: %
activity, negative = cell killing: -14.7

Compound: CN=C(NC)NCc1ccccc1
Unit info: %
activity, negative = cell killing: 7.26

Compound: CCC[C@@]1(CCc2ccccc2)CC(O)=C([C@H](CC)c2cccc(NS(=O)(=O)c3ccc(C(F)(F)F)cn3)c2)C(=O)O1
Unit info: %
activity, negative = cell killing: -1.26

Compound: O=C(O)c1cccc(/C=C2/C[C@@H]3[C@@H](/C=C/[C@@H](O)C4CCCCC4)[C@H](O)C[C@@H]3O2)c1
Unit info: %
activity, negative = cell killing: -11.8

Compound: CCCCCCCCCCCCCCCCCC(=O)[O][Al]
Unit info: %
activity, negative = cell killing: -6.36

Compound: CCCCCCCCCCCCCCCC(=O)OC/C=C(C)/C=C/C=C(C)/C=C/C1=C(C)CCCC1(C)C
Unit info: %
activity, negative = cell killing: 9.03
